System: HT-29
experiment.summary: Growth inhibition of human HT-29 cells assessed as cell growth at 10 uM incubated for 48 hrs by sulforhodamine B assay relative to control
Format: functional
run.parameters: HT-29, 48 h, read-out: Activity
parameter: growth at 10 µM (%)
The reply should be a number in %, with the unit left off.

Just so you know, measured growth at 10 µM for O=C1NCC(c2cc3ccc(Cl)cc3[nH]c2=O)Nc2ccccc21 (configuration not stated) came out at 72.2

O=C1CC(c2cc3ccc4ccccc4c3[nH]c2=O)Nc2ccccc21 (configuration not stated) yielded growth at 10 µM of 99.1

// recorded growth at 10 µM for O=C1CC(c2cc3ccccc3[nH]c2=O)Nc2ccccc21 (configuration not stated) : 99.5

Recorded result, O=C1NCC(c2cc3ccc4ccccc4c3[nH]c2=O)Nc2ccccc21 (configuration not stated) , growth at 10 µM: 95

So for Cc1ccc2[nH]c(=O)c(C3CNC(=O)c4ccccc4N3)cc2c1 (configuration not stated) , the logged growth at 10 µM turned out to be 104

# molecule CCCCOc1nc2c(C)cccc2cc1C1CNC(=O)c2ccccc2N1 (configuration not stated) ; its growth at 10 µM = 61.4

Note to self: growth at 10 µM recorded for CCCCOc1nc2ccc(OC)cc2cc1C1CNC(=O)c2ccccc2N1 (configuration not stated) was 100

Entry CCCCn1c(=O)c(C2CNC(=O)c3ccccc3N2)cc2ccccc21 (configuration not stated) , growth at 10 µM reported as 103

// field: growth at 10 µM; key: Cc1cccc2cc(C3CNC(=O)c4ccccc4N3)c(=O)[nH]c12 (configuration not stated) ; value = 81.3

Record O=C1NCC(c2cc3ccccc3[nH]c2=O)Nc2ccccc21 (configuration not stated) , field growth at 10 µM: 98.3

Field growth at 10 µM (entry CCCCn1c(=O)c(C2CNC(=O)c3ccccc3N2)cc2ccc(Cl)cc21 (configuration not stated) ) reads 98.7

Form: molecule = CCCCOc1nc2ccccc2cc1C1CNC(=O)c2ccccc2N1 (configuration not stated) ; growth at 10 µM = 0.87

---

Give growth at 10 µM for every item shown.
System: UO-31
experiment.summary: Growth inhibition of human UO31 cells assessed as cell growth at 10 uM incubated for 48 hrs by sulforhodamine B assay relative to control
Format: functional
run.parameters: UO-31, 48 h, read-out: Activity
Please reply with the bare figure in % and do not write the unit itself.

Item: CCCCOc1nc2ccccc2cc1C1CNC(=O)c2ccccc2N1 (stereo not drawn) | growth at 10 µM: 41.3

Consider Cc1cccc2cc(C3CNC(=O)c4ccccc4N3)c(=O)[nH]c12 (stereo not drawn) . Its measured growth at 10 µM is 92.8

// growth at 10 µM lookup, compound = CCCCn1c(=O)c(C2CNC(=O)c3ccccc3N2)cc2ccccc21 (stereo not drawn) , result: 93.1

The recorded growth at 10 µM for entry CCCCOc1nc2ccc(OC)cc2cc1C1CNC(=O)c2ccccc2N1 (stereo not drawn) equals 78.1

O=C1NCC(c2cc3ccc4ccccc4c3[nH]c2=O)Nc2ccccc21 (stereo not drawn) yielded growth at 10 µM of 105

Looking up O=C1CC(c2cc3ccc4ccccc4c3[nH]c2=O)Nc2ccccc21 (stereo not drawn) , I see its growth at 10 µM listed as 95.4

The compound listed as Cc1ccc2[nH]c(=O)c(C3CNC(=O)c4ccccc4N3)cc2c1 (stereo not drawn) has a reported growth at 10 µM of 84.3

Record O=C1NCC(c2cc3ccccc3[nH]c2=O)Nc2ccccc21 (stereo not drawn) , field growth at 10 µM: 76.8

---

What growth at 10 µM was measured for each of the following?
Tested on: OVCAR-3
experiment.summary: Growth inhibition of human OVCAR3 cells assessed as cell growth at 10 uM incubated for 48 hrs by sulforhodamine B assay relative to control
Type: functional
run.parameters: OVCAR-3, 48 h, read-out: Activity
Supply the numeric figure in %, leaving out any unit text.

The compound listed as CCCCOc1nc2ccc(OC)cc2cc1C1CNC(=O)c2ccccc2N1 (stereo not given) has a reported growth at 10 µM of 101

response.value for O=C1NCC(c2cc3ccccc3[nH]c2=O)Nc2ccccc21 (stereo not given) (field: growth at 10 µM) = 111

# compound Cc1cccc2cc(C3CNC(=O)c4ccccc4N3)c(=O)[nH]c12 (stereo not given) ; its growth at 10 µM = 104

// growth at 10 µM value for O=C1NCC(c2cc3ccc(Cl)cc3[nH]c2=O)Nc2ccccc21 (stereo not given) : 109

Recorded result, CCCCOc1nc2ccccc2cc1C1CNC(=O)c2ccccc2N1 (stereo not given) , growth at 10 µM: -9.73

Lab note: measured growth at 10 µM of O=C1CC(c2cc3ccc4ccccc4c3[nH]c2=O)Nc2ccccc21 (stereo not given) was 115

For reference, reported growth at 10 µM for CCCCn1c(=O)c(C2CNC(=O)c3ccccc3N2)cc2ccccc21 (stereo not given) stands at 99.8

Measured growth at 10 µM of Cc1ccc2[nH]c(=O)c(C3CNC(=O)c4ccccc4N3)cc2c1 (stereo not given) : 107

Reported growth at 10 µM for CCCCn1c(=O)c(C2CNC(=O)c3ccccc3N2)cc2ccc(Cl)cc21 (stereo not given) was 112

Form: compound = O=C1CC(c2cc3ccccc3[nH]c2=O)Nc2ccccc21 (stereo not given) ; growth at 10 µM = 113

---

So I've got a bunch of compounds here, and I need their growth at 10 µM values.
Tested on: MDA-MB-435
experiment.summary: Growth inhibition of human MDA-MB-435 cells assessed as cell growth at 10 uM incubated for 48 hrs by sulforhodamine B assay relative to control
Format: functional
run.parameters: MDA-MB-435, 48 h, read-out: Activity
Numbers only; they are read as %.

Field growth at 10 µM (system: MDA-MB-435) for entry O=C1NCC(c2cc3ccccc3[nH]c2=O)Nc2ccccc21 (centres undefined) = 107

Value (growth at 10 µM, MDA-MB-435) for record O=C1NCC(c2cc3ccc4ccccc4c3[nH]c2=O)Nc2ccccc21 (centres undefined) = 106

The recorded growth at 10 µM with MDA-MB-435 for CCCCn1c(=O)c(C2CNC(=O)c3ccccc3N2)cc2ccccc21 (centres undefined) was 105

Record CCCCn1c(=O)c(C2CNC(=O)c3ccccc3N2)cc2ccc(Cl)cc21 (centres undefined) ; system MDA-MB-435; growth at 10 µM = 103

---

For each record, write down the corresponding growth at 10 µM.
Tested on: SK-OV-3
experiment.summary: Growth inhibition of human SKOV3 cells assessed as cell growth at 10 uM incubated for 48 hrs by sulforhodamine B assay relative to control
Format: functional
run.parameters: SK-OV-3, 48 h, read-out: Activity
Form entry: value (%) — number only.

Readout growth at 10 µM for Cc1cccc2cc(C3CNC(=O)c4ccccc4N3)c(=O)[nH]c12 (centres undefined) , test system SK-OV-3, was 96.9

growth at 10 µM on SK-OV-3 for O=C1NCC(c2cc3ccc4ccccc4c3[nH]c2=O)Nc2ccccc21 (centres undefined) is 99.9

The compound O=C1NCC(c2cc3ccc(Cl)cc3[nH]c2=O)Nc2ccccc21 (centres undefined) , when measured on SK-OV-3, yielded growth at 10 µM of 77.8

growth at 10 µM for SK-OV-3 with input CCCCn1c(=O)c(C2CNC(=O)c3ccccc3N2)cc2ccc(Cl)cc21 (centres undefined) equals 89.8

---

Give EC50 for every item shown.
System: Plasmodium falciparum
experiment.summary: Antimalarial activity against chloroquine-sensitive Plasmodium falciparum 3D7 incubated for 48 hrs by malstat reagent based LDH release assay
Assay type: functional, organism-based
run.parameters: 3D7, 48 h
The reply should be a number in µg/mL, with the unit left off.

Record summary for O=C1NCC(c2cc3ccc(Cl)cc3[nH]c2=O)Nc2ccccc21 (centres undefined) : reported EC50 = 59.3

Item: Cc1ccc2[nH]c(=O)c(C3CNC(=O)c4ccccc4N3)cc2c1 (centres undefined) | EC50: 60.9

---

Hi there, I'd appreciate the recorded growth at 10 µM for every entry that follows.
Test system: T47D
experiment.summary: Growth inhibition of human T47D cells assessed as cell growth at 10 uM incubated for 48 hrs by sulforhodamine B assay relative to control
Type: functional
run.parameters: read-out: Activity
State just the number; it will be interpreted in %.

Summary: O=C1NCC(c2cc3ccccc3[nH]c2=O)Nc2ccccc21 (stereo not drawn) , T47D, growth at 10 µM = 91

O=C1NCC(c2cc3ccc(Cl)cc3[nH]c2=O)Nc2ccccc21 (stereo not drawn) tested on T47D gave growth at 10 µM: 66.5

Param item: CCCCOc1nc2ccccc2cc1C1CNC(=O)c2ccccc2N1 (stereo not drawn) ; param system: T47D; output growth at 10 µM: 20.9

Given the compound CCCCOc1nc2ccc(OC)cc2cc1C1CNC(=O)c2ccccc2N1 (stereo not drawn) and test system T47D, the measured growth at 10 µM is 94.1

# value of growth at 10 µM, T47D, item CCCCn1c(=O)c(C2CNC(=O)c3ccccc3N2)cc2ccc(Cl)cc21 (stereo not drawn) = 93.6

Summary line: CCCCOc1nc2c(C)cccc2cc1C1CNC(=O)c2ccccc2N1 (stereo not drawn) , T47D, reported growth at 10 µM = 58.4

Observed growth at 10 µM, T47D, O=C1NCC(c2cc3ccc4ccccc4c3[nH]c2=O)Nc2ccccc21 (stereo not drawn) : 85.7

Given the compound Cc1cccc2cc(C3CNC(=O)c4ccccc4N3)c(=O)[nH]c12 (stereo not drawn) and test system T47D, the measured growth at 10 µM is 93.1
